tested on: MILI (PIWIL2) piRISC loaded with L1MC piRNA (26 nt); assay: pre-steady-state target cleavage rate (min^-1); guide: L1MC piRNA 5'p-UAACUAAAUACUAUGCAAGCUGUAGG; MIWI and MILI are mouse PIWI proteins and EfPiwi is from a freshwater sponge; tags in brackets are library labels; higher = faster piRNA-guided slicing of the target; conditions: auxiliary factor: 500 nM mouse GTSF1;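 further: 1 nM active piRISC with 0.1 nM target library at 33 °C single turnover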
Attribute measured: pre-steady-state target cleavage rate

sequence=UCCUGGAACAGCUUGCUUAGUAUUUACUUA experimental_system="MILI (PIWIL2) piRISC loaded with L1MC piRNA (26 nt)" attribute_measured="pre-steady-state target cleavage rate" result_value=0.187
sequence=UCCUGGAUGUGCAUGCAUAGUAUUUUGUUA experimental_system="MILI (PIWIL2) piRISC loaded with L1MC piRNA (26 nt)" attribute_measured="pre-steady-state target cleavage rate" result_value=0.0798
sequence=UCCUGGAUGUCGAAGCAUAGUAUUAAGUUA experimental_system="MILI (PIWIL2) piRISC loaded with L1MC piRNA (26 nt)" attribute_measured="pre-steady-state target cleavage rate" result_value=0.034
sequence=UCCUGGAUGAGCUUGCUUAGUAUUUAGAUA experimental_system="MILI (PIWIL2) piRISC loaded with L1MC piRNA (26 nt)" attribute_measured="pre-steady-state target cleavage rate" result_value=0.128
sequence=UCCUGGAUGAGGUUGCAUAGUAUUUUGUUA experimental_system="MILI (PIWIL2) piRISC loaded with L1MC piRNA (26 nt)" attribute_measured="pre-steady-state target cleavage rate" result_value=0.0801
sequence=UCCUGGUACUCCUUGCAUAGUAUUUAGAAA experimental_system="MILI (PIWIL2) piRISC loaded with L1MC piRNA (26 nt)" attribute_measured="pre-steady-state target cleavage rate" result_value=0.0265
sequence=UCCUGGAUCUGCUUGCAUAGUAUUUUCAAA experimental_system="MILI (PIWIL2) piRISC loaded with L1MC piRNA (26 nt)" attribute_measured="pre-steady-state target cleavage rate" result_value=0.0366
sequence=UCCUGGUACAGCUUGCUUAGUAUUUACUUA experimental_system="MILI (PIWIL2) piRISC loaded with L1MC piRNA (26 nt)" attribute_measured="pre-steady-state target cleavage rate" result_value=0.191
sequence=UCCUGCUACAGCUUGCAUAGUAUUUACAUA experimental_system="MILI (PIWIL2) piRISC loaded with L1MC piRNA (26 nt)" attribute_measured="pre-steady-state target cleavage rate" result_value=0.157
sequence=UCCUGCUACACCUUGCAUAGUAAUUAGUUA experimental_system="MILI (PIWIL2) piRISC loaded with L1MC piRNA (26 nt)" attribute_measured="pre-steady-state target cleavage rate" result_value=0.157
sequence=UCCUGGAACUGCUUGCAUAGUAUUUAGUAA experimental_system="MILI (PIWIL2) piRISC loaded with L1MC piRNA (26 nt)" attribute_measured="pre-steady-state target cleavage rate" result_value=0.171
sequence=UCCUGGUACAGCUUGCAUAGUUUAUAGUUA experimental_system="MILI (PIWIL2) piRISC loaded with L1MC piRNA (26 nt)" attribute_measured="pre-steady-state target cleavage rate" result_value=0.0525
sequence=UCCUGCUAGAGCUUGCAUACUAUUUAGUUA experimental_system="MILI (PIWIL2) piRISC loaded with L1MC piRNA (26 nt)" attribute_measured="pre-steady-state target cleavage rate" result_value=0.0842
sequence=UCCUGCUACAGCUUGCAAUCUAUUUAGUUA experimental_system="MILI (PIWIL2) piRISC loaded with L1MC piRNA (26 nt)" attribute_measured="pre-steady-state target cleavage rate" result_value=0.0303
sequence=UCCUGCUACAGCUUGCAUAGGUAUUUAGUUA experimental_system="MILI (PIWIL2) piRISC loaded with L1MC piRNA (26 nt)" attribute_measured="pre-steady-state target cleavage rate" result_value=0.00815
sequence=UCCUGGAUGUCCUUGCAUAGUAUUGAGUUA experimental_system="MILI (PIWIL2) piRISC loaded with L1MC piRNA (26 nt)" attribute_measured="pre-steady-state target cleavage rate" result_value=0.0563
sequence=UCCUGCUACAGCUUGCAUUGUAUUAAGUUA experimental_system="MILI (PIWIL2) piRISC loaded with L1MC piRNA (26 nt)" attribute_measured="pre-steady-state target cleavage rate" result_value=0.215
sequence=UCCUGGAUCACCUUGCAUAGUAUAUAGUUA experimental_system="MILI (PIWIL2) piRISC loaded with L1MC piRNA (26 nt)" attribute_measured="pre-steady-state target cleavage rate" result_value=0.227
sequence=UCCUGGAUGUCGUUGCAUAGUAUUUAGAUA experimental_system="MILI (PIWIL2) piRISC loaded with L1MC piRNA (26 nt)" attribute_measured="pre-steady-state target cleavage rate" result_value=0.0436
sequence=UCCUGGUACAGCUUGCAUAGUAGUUAGUUA experimental_system="MILI (PIWIL2) piRISC loaded with L1MC piRNA (26 nt)" attribute_measured="pre-steady-state target cleavage rate" result_value=0.2
sequence=UCCUGCUACAAGCUUGCAUAGUAUUUAGUUA experimental_system="MILI (PIWIL2) piRISC loaded with L1MC piRNA (26 nt)" attribute_measured="pre-steady-state target cleavage rate" result_value=0.157
sequence=UCCUGGAACAGCUUGCAUAGCUAUUUAGUUA experimental_system="MILI (PIWIL2) piRISC loaded with L1MC piRNA (26 nt)" attribute_measured="pre-steady-state target cleavage rate" result_value=0.00904
sequence=UCCUGGUACAGCUUGCAUAGUAUAAUGUUA experimental_system="MILI (PIWIL2) piRISC loaded with L1MC piRNA (26 nt)" attribute_measured="pre-steady-state target cleavage rate" result_value=0.175
sequence=UCCUGGAUGUCGUUGCAUAGUAUUUAGUGA experimental_system="MILI (PIWIL2) piRISC loaded with L1MC piRNA (26 nt)" attribute_measured="pre-steady-state target cleavage rate" result_value=0.193
sequence=UCCUCCUUCAGGUUGCAUAGUAUUUAGUUA experimental_system="MILI (PIWIL2) piRISC loaded with L1MC piRNA (26 nt)" attribute_measured="pre-steady-state target cleavage rate" result_value=0.239
sequence=UCCUGGUACAGCUUGCAAAGUAUUUAGAAA experimental_system="MILI (PIWIL2) piRISC loaded with L1MC piRNA (26 nt)" attribute_measured="pre-steady-state target cleavage rate" result_value=0.0181
sequence=UCCUCCUACAGCUUGCAUUGAAUUUAGUUA experimental_system="MILI (PIWIL2) piRISC loaded with L1MC piRNA (26 nt)" attribute_measured="pre-steady-state target cleavage rate" result_value=0.0267
sequence=UCCUGCUAGAGCUUGCAUAGUAUAUAGUUA experimental_system="MILI (PIWIL2) piRISC loaded with L1MC piRNA (26 nt)" attribute_measured="pre-steady-state target cleavage rate" result_value=0.176
sequence=UCCUGGAUGUCGUUGCUUAGUAUUUAGAUA experimental_system="MILI (PIWIL2) piRISC loaded with L1MC piRNA (26 nt)" attribute_measured="pre-steady-state target cleavage rate" result_value=0.0162
sequence=UCCUGGAUGUCGAAGCAUAGUAUUUAGUGA experimental_system="MILI (PIWIL2) piRISC loaded with L1MC piRNA (26 nt)" attribute_measured="pre-steady-state target cleavage rate" result_value=0.0495
sequence=UCCUCCUACAGCUUGCAAAGUAUUUAGAAA experimental_system="MILI (PIWIL2) piRISC loaded with L1MC piRNA (26 nt)" attribute_measured="pre-steady-state target cleavage rate" result_value=0.0823
sequence=UCCUCCUUGUGCUUGCAUAGUAUUUAGUAA experimental_system="MILI (PIWIL2) piRISC loaded with L1MC piRNA (26 nt)" attribute_measured="pre-steady-state target cleavage rate" result_value=0.147
sequence=UCCUGGAACAGGUUGCUUAGUAUUUAGUUA experimental_system="MILI (PIWIL2) piRISC loaded with L1MC piRNA (26 nt)" attribute_measured="pre-steady-state target cleavage rate" result_value=0.253
sequence=UCCUGGAUGUCGUACCAUAGUAUUUAGUUA experimental_system="MILI (PIWIL2) piRISC loaded with L1MC piRNA (26 nt)" attribute_measured="pre-steady-state target cleavage rate" result_value=0.0168

Just for reference, the supplement of paper PMC10338343 is where these values come from.
